Reported cell viability values follow for various compounds
system: Caco-2; assay: cell viability relative to DMSO; higher = less toxic; details: 72 h; 10000 nM
observation type: cell viability (%)

[[record]]
compound = "CC1(C)CC(=O)c2c(C(F)(F)F)nn(-c3ccc(C(N)=O)c(N[C@H]4CC[C@H](OC(=O)CN)CC4)c3)c2C1"
units_of_measure = "%"
observed_measurement = 35.2

[[record]]
compound = "C[C@H](O)[C@H](O)[C@H]1CNc2nc(N)[nH]c(=O)c2N1"
units_of_measure = "%"
observed_measurement = 106

[[record]]
compound = "NC(=O)CCCCn1ccc(/N=C(\\N)NCC(F)(F)F)n1"
units_of_measure = "%"
observed_measurement = 97.6

[[record]]
compound = "NS(=O)(=O)c1cccc2c1c([N+](=O)[O-])cc1nc(O)c(O)nc12"
units_of_measure = "%"
observed_measurement = 102

[[record]]
compound = "Cc1c(Cc2ccc3ccccc3n2)c2cc(F)ccc2n1CC(=O)O"
units_of_measure = "%"
observed_measurement = 109

[[record]]
compound = "O=C(Nc1ccc2c(O)cc(S(=O)(=O)O)cc2c1)Nc1ccc2c(O)cc(S(=O)(=O)O)cc2c1"
units_of_measure = "%"
observed_measurement = 97.2

[[record]]
compound = "CC(C)NCC(O)c1ccc(N)c(C#N)c1 (stereo not given)"
units_of_measure = "%"
observed_measurement = 102

[[record]]
compound = "O=C(c1ccc(F)cc1)N1CCC[C@H](c2nc(-c3ccc(F)cc3)no2)C1"
units_of_measure = "%"
observed_measurement = 87.9

[[record]]
compound = "N[C@@H](C(=O)O)c1ccc(C(=O)O)c(C(=O)O)c1 (racemic) [3,4-DCPG-(+/-)]"
units_of_measure = "%"
observed_measurement = 97.4

[[record]]
compound = "CCN(CC)CC1CCCCN1CC(=O)N1c2ccccc2C(=O)Nc2cccnc21 (stereo not given)"
units_of_measure = "%"
observed_measurement = 98.8


---

system: Calu-3; experiment: cell viability relative to DMSO; higher = less toxic; conditions: 72 h; 10 nM
observation type: cell viability (%)

[[record]]
compound = "O=C(Nc1ccc2c(O)cc(S(=O)(=O)O)cc2c1)Nc1ccc2c(O)cc(S(=O)(=O)O)cc2c1"
observed_measurement = 100

[[record]]
compound = "O=C(O)CC(S)C(=O)O (centres undefined)"
observed_measurement = 101

[[record]]
compound = "C[C@@H]1C[C@H]2[C@@H]3CCC4=CC(=O)C=C[C@]4(C)[C@@]3(F)[C@@H](O)C[C@]2(C)[C@H]1C(=O)CO"
observed_measurement = 95

[[record]]
compound = "CCOC(=O)[C@H](C)C[C@@H](Cc1ccc(-c2ccccc2)cc1)NC(=O)CCC(=O)O"
observed_measurement = 96.6


---

system: U2OS; test: cell viability relative to DMSO; higher = less toxic; details: 72 h; 100 nM
Reported cell viability values follow for various compounds
observation type: cell viability (%)

[[record]]
substance_smiles = "Cn1cc(C2=C(c3cn(C4CCN(Cc5ccccn5)CC4)c4ccccc34)C(=O)NC2=O)c2ccccc21"
assayed_system = "U2OS"
observed_measurement = 102

[[record]]
substance_smiles = "C[C@@H]1C[C@H]2[C@@H]3CCC4=CC(=O)C=C[C@]4(C)[C@@]3(F)[C@@H](O)C[C@]2(C)[C@H]1C(=O)CO"
assayed_system = "U2OS"
observed_measurement = 91.9

[[record]]
substance_smiles = "O=C(/C=C/c1cccnc1)c1ccncc1"
assayed_system = "U2OS"
observed_measurement = 100

[[record]]
substance_smiles = "O=c1[nH]c([C@@H]2CCCN2)nc2c1oc1ccc(Cl)cc12"
assayed_system = "U2OS"
observed_measurement = 93.4

[[record]]
substance_smiles = "Cc1cc(CN)cc(C)c1NC(=O)c1ccc(-c2cc(Cl)ccc2Cl)o1"
assayed_system = "U2OS"
observed_measurement = 98.5

[[record]]
substance_smiles = "Oc1c(I)cc(I)cc1I"
assayed_system = "U2OS"
observed_measurement = 103


---

system: Caco-2; assay: cell viability relative to DMSO; higher = less toxic; details: 72 h; 100 nM
Reported cell viability values follow for various molecules
observation type: cell viability (%)

[[record]]
molecule = "O=C1NC(=O)c2cc(Nc3ccccc3)c(Nc3ccccc3)cc21"
units_of_measure = "%"
observed_measurement = 91.7

[[record]]
molecule = "Clc1cccc(C(c2ccc3[nH]cnc3c2)n2ccnc2)c1 (centres undefined) [liarozole]"
units_of_measure = "%"
observed_measurement = 98.7

[[record]]
molecule = "CCOC(=O)[C@H](C)C[C@@H](Cc1ccc(-c2ccccc2)cc1)NC(=O)CCC(=O)O [sacubitril]"
units_of_measure = "%"
observed_measurement = 101

[[record]]
molecule = "O=C(O)/C=C/c1ccc(O)c(O)c1 [caffeic-acid]"
units_of_measure = "%"
observed_measurement = 90.9

[[record]]
molecule = "Cc1c(Cc2ccc3ccccc3n2)c2cc(F)ccc2n1CC(=O)O"
units_of_measure = "%"
observed_measurement = 98.7

[[record]]
molecule = "CN1CCN(c2cccc(Nc3nc4c(-c5ccc(S(C)(=O)=O)cc5)cccn4n3)c2)CC1"
units_of_measure = "%"
observed_measurement = 95.1

[[record]]
molecule = "C[C@H](CCC(=O)O)[C@H]1CC[C@H]2[C@@H]3[C@@H](O)C[C@@H]4C[C@H](O)CC[C@]4(C)[C@H]3CC[C@]12C [ursodiol]"
units_of_measure = "%"
observed_measurement = 98.4

[[record]]
molecule = "NS(=O)(=O)Cc1noc2ccccc12 [zonisamide]"
units_of_measure = "%"
observed_measurement = 96.1

[[record]]
molecule = "O=S(=O)(O)c1ccc2[nH]c(-c3ccccc3)nc2c1 [phenylbenzimidazole-sulfonic-acid]"
units_of_measure = "%"
observed_measurement = 90.3


---

Reported cell viability values follow for various compounds
tested on: HepG2; assay: cell viability relative to DMSO; higher = less toxic; settings: 72 h; 1000 nM
observation type: cell viability (%)

[[record]]
compound = "CSc1ccccc1Nc1nc(N2CCNCC2)nc2c(NCC3CC3)ncnc12 [KHK-IN-1]"
assayed_system = "HepG2"
units_of_measure = "%"
observed_measurement = 91.6

[[record]]
compound = "CCC(CC)n1ccc2c(C(=O)NCc3c(C)cc(C)[nH]c3=O)cc(C#N)cc21 [EI1]"
assayed_system = "HepG2"
units_of_measure = "%"
observed_measurement = 93.7

[[record]]
compound = "O=c1[nH]c(=O)n([C@H]2C[C@H](O)[C@@H](CO)O2)cc1F [floxuridine]"
assayed_system = "HepG2"
units_of_measure = "%"
observed_measurement = 50

[[record]]
compound = "N[C@@H](CS(=O)O)C(=O)O [L-cysteinesulfinic-acid]"
assayed_system = "HepG2"
units_of_measure = "%"
observed_measurement = 89.9

[[record]]
compound = "Nc1c(S(=O)(=O)O)cc(Nc2cccc3ccccc23)c2c1C(=O)c1ccccc1C2=O"
assayed_system = "HepG2"
units_of_measure = "%"
observed_measurement = 90

[[record]]
compound = "CC(C)=CCc1c(O)cc(O)c2c(=O)c(O)c(-c3ccc(C(F)(F)F)cc3)oc12 [SNG-1153]"
assayed_system = "HepG2"
units_of_measure = "%"
observed_measurement = 103

[[record]]
compound = "O=C1c2cccc(O)c2C(=O)c2c(O)cc(CO)cc21 [aloe-emodin]"
assayed_system = "HepG2"
units_of_measure = "%"
observed_measurement = 105

[[record]]
compound = "NC(=O)OCCCc1ccccc1 [phenprobamate]"
assayed_system = "HepG2"
units_of_measure = "%"
observed_measurement = 98.6

[[record]]
compound = "Cn1ccc2cc3c(cc21)CCN3C(=O)Nc1cccnc1"
assayed_system = "HepG2"
units_of_measure = "%"
observed_measurement = 95.3

[[record]]
compound = "CCOC(=O)C1=C(C)NC(=S)NC1c1cccc(O)c1 (stereo not given) [monastrol]"
assayed_system = "HepG2"
units_of_measure = "%"
observed_measurement = 99.4


---

Reported cell viability values follow for various compounds
system: Caco-2; assay: cell viability relative to DMSO; higher = less toxic; details: 72 h; 1 nM
observation type: cell viability (%)

[[record]]
compound = "C[C@H](NC(=O)c1sccc1OCc1ccc(Cl)cc1)c1ccccc1"
observed_measurement = 97.9

[[record]]
compound = "OC[C@@H](O)[C@H]1O[C@@H]2O[C@H](C(Cl)(Cl)Cl)O[C@@H]2[C@H]1O [chloralose]"
observed_measurement = 101

[[record]]
compound = "COc1ccc(O)cc1 [mequinol]"
observed_measurement = 97.8

[[record]]
compound = "C[C@H](NCc1ccc(OCc2ccccc2F)cc1)C(N)=O [priralfinamide]"
observed_measurement = 97.8

[[record]]
compound = "Nc1nc2[nH]cnc2c(=S)[nH]1 [thioguanine]"
observed_measurement = 101

[[record]]
compound = "N#Cc1c(N(CC(=O)O)CC(=O)O)sc(C(=O)O)c1CC(=O)O [Strontium Ranelate]"
observed_measurement = 93

[[record]]
compound = "COc1ccc(/C=C/C(=O)Nc2ccccc2C(=O)O)cc1OC [tranilast]"
observed_measurement = 96.9

[[record]]
compound = "CC(=O)N(C)c1cc(-c2ccnc3c(C(=O)c4cccs4)cnn23)ccc1F [lorediplon]"
observed_measurement = 100

[[record]]
compound = "O=C(C1CC1)N1CC[C@@H](Cc2n[nH]c(=O)n2-c2ccc(-c3ccc4occc4c3)cc2)C1"
observed_measurement = 104

[[record]]
compound = "CC1(C)Oc2ccc(C#N)cc2[C@@H](N2CCCC2=O)[C@@H]1O [levcromakalim]"
observed_measurement = 96.5

